molecular target: Anti-CD28 Fab (SEQ ID NOs: 696, 697); assay: phage binding ELISA on captured anti-CD28 Fab; competitor CD28 antigen pre-incubated in the wells
Sequence (VH, as listed by the source, chain 1 of 2): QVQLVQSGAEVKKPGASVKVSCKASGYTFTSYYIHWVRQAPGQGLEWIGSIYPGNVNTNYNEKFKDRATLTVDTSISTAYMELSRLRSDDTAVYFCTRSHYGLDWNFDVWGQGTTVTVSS
Sequence (VL, as listed by the source, chain 2 of 2): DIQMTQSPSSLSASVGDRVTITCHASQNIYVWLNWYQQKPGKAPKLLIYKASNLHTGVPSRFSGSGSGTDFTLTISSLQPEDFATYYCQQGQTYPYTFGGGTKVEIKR
Where no end group is shown, it is not given here.
true if Anti-CD28 Fab signal in the presence of CD28 is below 0.08. false if not; exact matches included in false.

q: Is Anti-CD28 Fab signal in the presence of CD28 of YCQGHLPQYIEKCL (cysteine pairing not given here; also: displayed on phage by fusion to pIII, linker and pIII sequence not given here, Clonal phage of the Peptide-87 library; not shown: fused to the pIII filament of the bacteriophage) [Phage-1170] strictly below 0.08?
a: true

q: Another binder to check: YCEGHVAEYRAKCL (cysteine pairing not given here; also: displayed on phage by fusion to pIII, linker and pIII sequence not given here, Clonal phage of the Peptide-87 library; not shown: fused to the pIII filament of the bacteriophage) [Phage-1169]
a: false

q: Another binder to check: YCVGHSEQYMAKCL (cysteine pairing not given here; also: displayed on phage by fusion to pIII, linker and pIII sequence not given here, Clonal phage of the Peptide-87 library; not shown: fused to the pIII filament of the bacteriophage) [Phage-1175]
a: true

q: Another binder to check: YCDGHIWPWIEKCL (cysteine pairing not given here; also: displayed on phage by fusion to pIII, linker and pIII sequence not given here, Clonal phage of the Peptide-87 library; not shown: fused to the pIII filament of the bacteriophage) [Phage-1180]
a: false

q: Another binder to check: YCDGHEAEYMWKCL (cysteine pairing not given here; also: displayed on phage by fusion to pIII, linker and pIII sequence not given here, Clonal phage of the Peptide-87 library; not shown: fused to the pIII filament of the bacteriophage) [Phage-1176]
a: false

q: Another binder to check: YCDGHLQMYMMKCL (cysteine pairing not given here; also: displayed on phage by fusion to pIII, linker and pIII sequence not given here, Clonal phage of the Peptide-87 library; not shown: fused to the pIII filament of the bacteriophage) [Phage-1173]
a: true

q: Another binder to check: YCEGHLYEYMWKCL (cysteine pairing not given here; also: displayed on phage by fusion to pIII, linker and pIII sequence not given here, Clonal phage of the Peptide-87 library; not shown: fused to the pIII filament of the bacteriophage) [Phage-1174]
a: true

q: Another binder to check: YCEGHAEQYMKKCL (cysteine pairing not given here; also: displayed on phage by fusion to pIII, linker and pIII sequence not given here, Clonal phage of the Peptide-87 library; not shown: fused to the pIII filament of the bacteriophage) [Phage-1177]
a: true

q: Another binder to check: YCDGHEQQYMEKCL (cysteine pairing not given here; also: displayed on phage by fusion to pIII, linker and pIII sequence not given here, Clonal phage of the Peptide-87 library; not shown: fused to the pIII filament of the bacteriophage) [Phage-1172]
a: true
